Recorded IC50 values for a group of binders are listed next.
Biological target: MMP14 Recombinant Protein (human, UniProt P50281 112-287)
Assay: enzyme inhibition

The following binders have reported results that may help.
- binder: "active MMP-9-binding peptide M91010 (designed binder) GSGMKETAAAKFERQHMDSPDLGTDDDDKAMADIGSANSDPQFGLFSKYRTPNCRKVGEPACQMSFNPVCGSDMSTYANECTLCMKIREGGHNIKIIRNGPCGASAAA"
  IC50: "> 1000 nM"
- binder: "active MMP-9-binding peptide M91002 (designed binder) GSGMKETAAAKFERQHMDSPDLGTDDDDKAMADIGSANSDPQFGLFSKYRTPNCRTGRGPACQMGFQPVCGSDMSTYANECTLCMKIREGGHNIKIIRNGPCGASAAA"
  IC50: "> 1000 nM"
- binder: "active MMP-9-binding peptide M91001 (designed binder) GSGMKETAAAKFERQHMDSPDLGTDDDDKAMADIGSANSDPQFGLFSKYRTPNCQRGIGPSCQMSYKPVCGSDMSTYANECTLCMKIREGGHNIKIIRNGPCGASAAA"
  IC50: "> 1000 nM"

// below: IC50 requested for another binder
Retrieve IC50 measured for active MMP-9-binding peptide M91004 (designed binder) GSGMKETAAAKFERQHMDSPDLGTDDDDKAMADIGSANSDPQFGLFSKYRTPNCRQRKGPSCQMAFQPVCGSDMSTYANECTLCMKIREGGHNIKIIRNGPCGASAAA and print it.
> 1000 nM

Where do these numbers come from? They come from patent US20200231654A1.
